System: H2595
Experiment: In vitro cellular proliferation assay ([3H]-thymidine incorporation)
Assay type: cell-based, human
Conditions: Homo sapiens, NCI-H2595; H2595 (Melignant Pleural Mesothelioma), 72 hours with drug; read-out: IC50
MEASURE NAME: pIC50
Remember the convention: pIC50 equals -log10 of concentration in molar.

Query :: # return recorded pIC50 for input `Cc1cc(N2CCOCC2)cc2[nH]c(-c3c(NC[C@@H](O)c4cccc(Cl)c4)cc[nH]c3=O)nc12`
Result :: 5.30

====

Tested on: JD
Experiment: In vitro cellular proliferation assay ([3H]-thymidine incorporation)
Assay type: cell-based, human
Details: Homo sapiens, 72 h
Experimental: All pediatric sarcoma and neuroblastoma cell lines were obtained from Dr. Lee Helman at NIH. […] Cells were plated at an optimized density for each cell line per well in 96-well microtiter Falcon plates, incubated overnight, and then exposed to a serial dilution of drug. […] The mean IC50 and standard deviation (SD) from multiple tests for each cell line were calculated.
MEASURE NAME: IC50 (nM)
Report the value in nM with no unit label.

Query :: Output IC50 of C[C@@]1(C(=O)Nc2ccc(F)nc2)CCCN1c1nc(Nc2cc(C3CC3)[nH]n2)c2cccn2n1 [Compound 2]
Result :: 391

These entries and their values trace back to patent US8492328B2.
